# Target or test system: Transcription factor AP1 (Homo sapiens, UniProt P05412+P01100)
# Sequence (P05412 whole entry): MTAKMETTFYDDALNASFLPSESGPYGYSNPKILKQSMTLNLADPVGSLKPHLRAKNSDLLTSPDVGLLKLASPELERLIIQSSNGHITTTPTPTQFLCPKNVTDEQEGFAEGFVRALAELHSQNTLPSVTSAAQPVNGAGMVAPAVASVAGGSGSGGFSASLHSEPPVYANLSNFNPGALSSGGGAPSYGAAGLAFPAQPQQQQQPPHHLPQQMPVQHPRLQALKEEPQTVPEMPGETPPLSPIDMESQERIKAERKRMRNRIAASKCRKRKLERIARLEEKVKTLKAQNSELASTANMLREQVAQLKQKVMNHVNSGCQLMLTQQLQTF
# Sequence (P01100 whole entry): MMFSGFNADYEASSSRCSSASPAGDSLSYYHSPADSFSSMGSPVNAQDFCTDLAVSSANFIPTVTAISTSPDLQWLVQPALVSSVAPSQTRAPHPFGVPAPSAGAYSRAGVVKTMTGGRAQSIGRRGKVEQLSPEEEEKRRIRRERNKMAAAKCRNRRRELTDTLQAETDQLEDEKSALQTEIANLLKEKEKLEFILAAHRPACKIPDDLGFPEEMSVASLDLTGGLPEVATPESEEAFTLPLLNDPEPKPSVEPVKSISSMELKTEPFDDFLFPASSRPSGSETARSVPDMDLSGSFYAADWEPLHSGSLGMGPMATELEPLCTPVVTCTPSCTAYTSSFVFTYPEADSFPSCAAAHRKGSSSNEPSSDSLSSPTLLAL
# Protocol text: Inhibitory activity on AP1 using ELISA based AP1 DNA binding
# Type: protein-complex assay
Test readout: IC50 (µM)

INSERT INTO assay_data (compound, unit_abbreviation, assay_result) VALUES
  ('CC(C)CCC=C1CCC2(CC1)SC[C@@H](C(=O)O)N2C(=O)CCC(C)C (some centres not stated)', 'µM', 650),
  ('CC(C)CC=C1CCC2(CC1)SC[C@@H](C(=O)O)N2C(=O)CCCC(C)C (some centres not stated)', 'µM', 460);

---

# Target or test system: Transcription factor AP1 (Homo sapiens, UniProt P05412+P01100)
# Protocol text: Inhibitory activity on AP1 DNA-binding at 500 uM
# Type: protein-complex assay
Test readout: inhibition (%)

Example entries begin here.
INSERT INTO measurements (structure_string, target_or_test_system, unit_abbreviation, assay_result) VALUES
  ('CC(C)COc1ccc(C(=O)c2ccc(OCC(C)C)cc2)cc1', 'Transcription factor AP1 (Homo sapiens, UniProt P05412+P01100)', '%', 3),
  ('CC(C)COc1ccc(C(=O)c2ccc(OCc3ccccc3)cc2)cc1CCC(=O)O', 'Transcription factor AP1 (Homo sapiens, UniProt P05412+P01100)', '%', 45),
  ('CCCOc1ccc(C(=O)c2ccc(OCC(C)C)cc2)cc1CCC(=O)O', 'Transcription factor AP1 (Homo sapiens, UniProt P05412+P01100)', '%', 26),
  ('CC(C)COc1ccc(C(=O)c2ccc(OCC(C)C)c(CCC(=O)O)c2)cc1', 'Transcription factor AP1 (Homo sapiens, UniProt P05412+P01100)', '%', 28),
  ('CC(C)COc1ccc(C(=O)c2ccc(OCC(C)C)c(CCC(N)=O)c2)cc1', 'Transcription factor AP1 (Homo sapiens, UniProt P05412+P01100)', '%', 5),
  ('CC(C)COc1ccc(C(=O)c2cccc(CCC(=O)O)c2)cc1', 'Transcription factor AP1 (Homo sapiens, UniProt P05412+P01100)', '%', 10);

[A] CC(C)COc1ccc(C(=O)c2ccc(OCc3ccccc3)c(CCC(=O)O)c2)cc1
[B] CC(C)COc1ccc(C(=O)c2ccccc2)cc1CCC(=O)O
[C] CCCOc1ccc(C(=O)c2ccc(OCC(C)C)c(CCC(=O)O)c2)cc1
Exam item: Hi! Can you put these in order of inhibition, lowest number first? The labels, placed in the requested order, form the answer.
Marked response: B, C, A
(B: 7%, C: 25%, A: 51%)

---

# Target or test system: Transcription factor AP1 (Homo sapiens, UniProt P01100+P05412)
# Sequence (P05412 whole entry): as the sequence (P05412 whole entry) above
# Sequence (P01100 whole entry): as the sequence (P01100 whole entry) above
# Protocol text: Inhibitory activity on AP1 using ELISA based AP1 DNA binding
# Format: protein-complex assay
Test readout: IC50 (µM)

Worked cases, answers included:
INSERT INTO results (structure_string, test_readout, assay_result) VALUES
  ('CC(C)COc1ccc(C(=O)c2ccc(OCc3ccccc3)c(CCC(=O)O)c2)cc1', 'IC50', 420),
  ('CCCOc1ccc(C(=O)c2ccc(OCC(C)C)cc2)cc1CCC(=O)O', 'IC50', 910),
  ('CC(C)COc1cccc(C(=O)c2ccc(OCC(C)C)c(CCC(=O)O)c2)c1', 'IC50', 600);

[A] CC(C)COc1ccc(C(=O)c2ccc(OCC(C)C)c(CCC(=O)O)c2)cc1
[B] CCCOc1ccc(C(=O)c2ccc(OCC(C)C)c(CCC(=O)O)c2)cc1
Exam item: Which is greater in IC50, the first item A or the second item B ? In your reply, give the label of the chosen option.
Marked response: B

Data origin, for the record: ChEMBL document CHEMBL1148596
